# Tested target: T1, MDM2 (res 2-125) (UniProt Q00987 2-125)
# T1 construct: range 2-125
# T1 sequence (Q00987 2-125 limits assumed): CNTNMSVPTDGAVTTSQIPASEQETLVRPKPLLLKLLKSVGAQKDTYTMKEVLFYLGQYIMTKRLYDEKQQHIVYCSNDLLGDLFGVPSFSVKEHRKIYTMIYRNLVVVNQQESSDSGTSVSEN
# Assay procedure: as described in Example 1 (method not retold)
pKd: −log10 of the molar value. Starred links: 1 amine or outer side, 2 acyl side, 3 side chain; linkers in the order of their positions; H or OH if unused. Positions of bridges follow the written chain, without caps; N, C: chain ends. TBMB = c1c(C[*:1])cc(C[*:3])cc1C[*:2]
Reported metric: pKd

Look at this binder and give its reported pKd. H-SCVRFGWTCDNSWHGCKG-OH (linker 2-9-16 via TBMB, measured in PBS with 5 mM DTT; also called peptide 48; PEP48L1-PEP48L2 bicyclic peptide) [PEP48 bicyclic peptide (synthetic peptide of phage clone 48 conjugated to TBMB)]
~6.18
